Experiment Description: Biodistribution studies in HEK-uPAR xenograft-bearing nude mice
Experimental Parameters: female, CD1/nude, mouse, salivary glands, 5 MBq (0.5 nmol), total radioactivity, 24 h p.i.; 5 MBq, 0.5 nmol; decay-corrected; average ± SD, n=3 animals
tissue uptake at 24 h by entry:
Answer in %ID/g, number only, no unit symbol.

## Input GET /values?readout=tissue uptake at 24 h&item= CC(C)C[C@H](NC(=O)[C@H](Cc1ccc(O)cc1)NC(=O)[C@@H](CCCNC(=N)N)NC(=O)[C@@H](CO)NC(=O)[C@H](Cc1ccccc1)NC(=O)[C@H](CC1CCCCC1)NC(=O)[C@H](CC(=O)O)NC(=O)CN1CCN(CC(=O)O)CCN(CC(=O)O)CCN(CC(=O)O)CC1)C(=O)N[C@@H](Cc1c[nH]c2ccccc12)C(=O)N[C@@H](CO)C(N)=O [[^177Lu]Lu-DOTA-AE105, metal not drawn, reference compound]
## Output 0.09

## Input How about this molecule: CC(C)C[C@H](NC(=O)[C@H](Cc1ccc(O)cc1)NC(=O)[C@@H](CCCNC(=N)N)NC(=O)[C@@H](CO)NC(=O)[C@H](Cc1ccccc1)NC(=O)[C@H](CC1CCCCC1)NC(=O)[C@H](CC(=O)O)NC(=O)[C@H](CCCCNC(=O)CCCc1ccc(I)cc1)NC(=O)CN1CCN(CC(=O)O)CCN(CC(=O)O)CCN(CC(=O)O)CC1)C(=O)N[C@@H](Cc1c[nH]c2ccccc12)C(=O)N[C@@H](CO)C(N)=O [[^177Lu]Lu-uPAR-01, metal not drawn]
## Output 1.5

## Input Same question for CC(C)C[C@H](NC(=O)[C@H](Cc1ccc(O)cc1)NC(=O)[C@@H](CCCNC(=N)N)NC(=O)[C@@H](CO)NC(=O)[C@H](Cc1ccccc1)NC(=O)[C@H](CC1CCCCC1)NC(=O)[C@H](CC(=O)O)NC(=O)CCOCCOCCOCCOCCNC(=O)[C@H](CCCCNC(=O)CCCc1ccc(I)cc1)NC(=O)CN1CCN(CC(=O)O)CCN(CC(=O)O)CCN(CC(=O)O)CC1)C(=O)N[C@@H](Cc1c[nH]c2ccccc12)C(=O)N[C@@H](CO)C(N)=O [[^177Lu]Lu-uPAR-05, metal not drawn] please.
## Output 1.1

## Input Moving on to the next molecule: CC(C)C[C@H](NC(=O)[C@H](Cc1ccc(O)cc1)NC(=O)[C@@H](CCCNC(=N)N)NC(=O)[C@@H](CO)NC(=O)[C@H](Cc1ccccc1)NC(=O)[C@H](CC1CCCCC1)NC(=O)[C@H](CC(=O)O)NC(=O)[C@H](CCCCNC(=O)CCCc1ccc(I)cc1)NC(=O)[C@@H](N)CCCCNC(=O)CN1CCN(CC(=O)O)CCN(CC(=O)O)CCN(CC(=O)O)CC1)C(=O)N[C@@H](Cc1c[nH]c2ccccc12)C(=O)N[C@@H](CO)C(N)=O [[^177Lu]Lu-uPAR-04, metal not drawn]
## Output 2.4

====

Some molecules, each annotated with its measured tissue uptake at 24 h.
Experiment Description: Biodistribution studies in HEK-uPAR xenograft-bearing nude mice
Experimental Parameters: female, CD1/nude, mouse, lung, 5 MBq (0.5 nmol), total radioactivity, 24 h p.i.; 5 MBq, 0.5 nmol; decay-corrected; average ± SD, n=3 animals
Value expressed in %ID/g; do not type the unit.

[[record]]
molecule = "CC(C)C[C@H](NC(=O)[C@H](Cc1ccc(O)cc1)NC(=O)[C@@H](CCCNC(=N)N)NC(=O)[C@@H](CO)NC(=O)[C@H](Cc1ccccc1)NC(=O)[C@H](CC1CCCCC1)NC(=O)[C@H](CC(=O)O)NC(=O)CCOCCOCCOCCOCCNC(=O)[C@H](CCCCNC(=O)CCCc1ccc(I)cc1)NC(=O)CN1CCN(CC(=O)O)CCN(CC(=O)O)CCN(CC(=O)O)CC1)C(=O)N[C@@H](Cc1c[nH]c2ccccc12)C(=O)N[C@@H](CO)C(N)=O [[^177Lu]Lu-uPAR-05, metal not drawn]"
readout_kind = "tissue uptake at 24 h"
measurement = 2.6


## Input Which measured tissue uptake at 24 h value corresponds to CC(C)C[C@H](NC(=O)[C@H](Cc1ccc(O)cc1)NC(=O)[C@@H](CCCNC(=N)N)NC(=O)[C@@H](CO)NC(=O)[C@H](Cc1ccccc1)NC(=O)[C@H](CC1CCCCC1)NC(=O)[C@H](CC(=O)O)NC(=O)CN1CCN(CC(=O)O)CCN(CC(=O)O)CCN(CC(=O)O)CC1)C(=O)N[C@@H](Cc1c[nH]c2ccccc12)C(=O)N[C@@H](CO)C(N)=O [[^177Lu]Lu-DOTA-AE105, metal not drawn, reference compound] ?
## Output 0.21

## Input Record: CC(C)C[C@H](NC(=O)[C@H](Cc1ccc(O)cc1)NC(=O)[C@@H](CCCNC(=N)N)NC(=O)[C@@H](CO)NC(=O)[C@H](Cc1ccccc1)NC(=O)[C@H](CC1CCCCC1)NC(=O)[C@H](CC(=O)O)NC(=O)[C@H](CCCCNC(=O)CCCc1ccc(I)cc1)NC(=O)CN1CCN(CC(=O)O)CCN(CC(=O)O)CCN(CC(=O)O)CC1)C(=O)N[C@@H](Cc1c[nH]c2ccccc12)C(=O)N[C@@H](CO)C(N)=O [[^177Lu]Lu-uPAR-01, metal not drawn]
## Output 3.3

## Input And CC(C)C[C@H](NC(=O)[C@H](Cc1ccc(O)cc1)NC(=O)[C@@H](CCCNC(=N)N)NC(=O)[C@@H](CO)NC(=O)[C@H](Cc1ccccc1)NC(=O)[C@H](CC1CCCCC1)NC(=O)[C@H](CC(=O)O)NC(=O)[C@H](CCCCNC(=O)CCCc1ccc(I)cc1)NC(=O)[C@@H](N)CCCCNC(=O)CN1CCN(CC(=O)O)CCN(CC(=O)O)CCN(CC(=O)O)CC1)C(=O)N[C@@H](Cc1c[nH]c2ccccc12)C(=O)N[C@@H](CO)C(N)=O [[^177Lu]Lu-uPAR-04, metal not drawn] ?
## Output 4.3
